The measurements presented in this section are drawn from the supplement of paper PMC11061612.

Reported Bliss excess values follow for various compounds
# Tested on: HCC1806 (Breast Carcinoma);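 also: after 72 h of two-drug dosing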
# experimental details: Bliss excess, mean over the matrix (fraction); higher = more synergy
The answer should be written as a number, with no unit following it.

Requested read-out: Bliss excess. Entry: CC1(C)CCC(CN2CCN(c3ccc(C(=O)NS(=O)(=O)c4ccc(NCC5CCOCC5)c([N+](=O)[O-])c4)c(Oc4cnc5[nH]ccc5c4)c3)CC2)=C(c2ccc(Cl)cc2)C1 [Venetoclax] + CCN(CCO)CCCOc1ccc2c(Nc3cc(CC(=O)Nc4cccc(F)c4)[nH]n3)ncnc2c1 [AZD2811] (first compound max 1 µM, 7x7, partner max 1 µM)
0.0137

More entries:
Requested read-out: Bliss excess. Entry: CC1(C)CCC(CN2CCN(c3ccc(C(=O)NS(=O)(=O)c4ccc(NCC5CCOCC5)c([N+](=O)[O-])c4)c(Oc4cnc5[nH]ccc5c4)c3)CC2)=C(c2ccc(Cl)cc2)C1 [Venetoclax] + COc1cc(Nc2ncc3c(n2)-c2ccc(Cl)cc2C(c2c(F)cccc2OC)=NC3)ccc1C(=O)O [Alisertib] (first compound max 1 µM, 7x7, partner max 10 µM)
0.0042
